Data provenance: paper PMC7483518

Molecular target: photolabile unchained HLA-A*11:01 pMHC-I protein (Homo sapiens, UniProt P04439, A114D/D185E/E176A/F33Y/L180Q/S129P/T187R)
Assay: ELISA with photolabile unchained pMHC-I protein and UV irradiation
Type: binding
Conditions: Table 2; 62.5 nM photolabile pMHC-I mixture, 5 μM peptide in PBS, UV 365 nm 2 × 5 min on ice, 2 h room temperature on anti-β2m plate; Abs450nm − Abs570nm; instability cutoff < 0.6
The following sequences are shown together with reported ELISA450nm values.
experimental.endpoint: ELISA450nm

1. NILNPFLPLL [putative peptide, HBV, no IEDB entry]	0.2827
2. ATVLMGLGK [reference compound]	1.911
3. NTLEQTVKK [reference compound]	1.631
4. TVIRRRGR [reference compound]	0.1482
5. DLAQCFFCFK [reference compound]	0.3956
6. RTQSPRRRR [reference compound]	1.204
7. LNIDLLWSV [reference compound]	0.2738
8. TVMDIISRR [reference compound]	1.944
9. LLAQFTSAL [putative peptide, HBV, no IEDB entry]	0.214
10. RTLSPRRRR [putative peptide, HBV, no IEDB entry]	0.8658
11. MVWESGCTV [IEDB 140,054, Human; a known HLA-A*02:01 antigen, reference compound]	0.5937

* * *

Reported values of EZ50kDa for individual entries
Tested on: HLA-A*11:01 single chain protein;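 as to EZ50kDa: intact 50 kDa band volume scaled with positive control peptide as 1 and negative as 0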
Assay type: biochemical, Human
Design: unit not given beside the values
Settings: Table 3; EGFR peptide library (n = 177, duplicated); pH 6.2, 37 °C, 14 h, enterokinase; Eq. (4)
experimental.endpoint: EZ50kDa

1. QLMPFGSLLDY [CS1032]	0.869
2. KITDFGRAKLL [LR1032]	0.0352
3. MQLMPFGCLLDY [TM1050]	0.0956
4. GSLLDYVREHK [CS1037]	0.367
5. SLLDYVREHKDN [CS1050]	0.0255
6. KTSPKANK [EX1003, EGFR exon 19 deletion-derived peptide]	0.0341
7. FGSLLDYVREH [CS1036]	0.0420
8. SLLDYVREH [CS1017]	0.733
9. SLLDYVREHK [CS1027]	0.811

* * *

System: HLA-A*11:01 single chain protein
Type: biochemical, Human
Hi! Just check whether EZ_mean is below -0.06. Below gives y, equal or above gives n.

1) ITQLMPFGS [CS1009]	y
2) QLMPFGSLLD [CS1021]	y
3) GRAKLLGA [LR1007]	y
4) LITQLMPFGS [CS1018]	n
5) LMPFGSLLDYV [CS1033]	y
6) RAKLLGAEEKE [LR1038]	y
7) MQLMPFGCLLDY [TM1050]	n
8) VQLITQLMPFGS [CS1039]	n
9) IMQLMPFGCLL [TM1037]	y
10) FGSLLDYVREH [CS1036]	n
11) FGRAKLLG [LR1006]	n
12) QLITQLMPFGSL [CS1040]	n
13) TDFGRAKLL [LR1013]	n
14) GRAKLLGAEE [LR1026]	n
15) GRAKLLGAEEKE [LR1049]	n
16) QLMPFGSLLDY [CS1032]	n
17) CLTSTVQLIMQL [TM1040]	y
18) LMPFGSLL [CS1003]	y
19) VQLIMQLMPFG [TM1034]	y
20) TQLMPFGSL [CS1010]	n
21) TSTVQLIMQLMP [TM1042]	y
22) VQLIMQLMPFGC [TM1045]	y
23) FGRAKLLGAE [LR1025]	n
24) DFGRAKLLGA [LR1024]	y
25) FGRAKLLGA [LR1015]	n
26) LIMQLMPFGCLL [TM1048]	y
27) ICLTSTVQLIMQ [TM1039]	y
28) ITDFGRAKLLGA [LR1045]	y
29) TQLMPFGS [CS1001]	y
30) DFGRAKLL [LR1005]	n
31) PFGSLLDYVR [CS1024]	n
32) QLITQLMPFGS [CS1028]	y
33) TQLMPFGSLLD [CS1031]	y
34) IMQLMPFGCLLD [TM1049]	y
35) KITDFGRAKLLG [LR1044]	n
36) RAKLLGAEE [LR1017]	n
37) RAKLLGAEEKEY [LR1050]	n
38) ITQLMPFGSL [CS1019]	y
39) PFGSLLDY [CS1005]	y
40) FGRAKLLGAEEK [LR1048]	n
41) QLIMQLMPFGC [TM1035]	y
42) TVQLIMQLMPF [TM1033]	y
43) TDFGRAKL [LR1004]	n
44) DFGRAKLLGAEE [LR1047]	n
45) KITDFGRAKL [LR1021]	n
46) CLTSTVQLIMQ [TM1029]	y
47) MQLMPFGCLLD [TM1038]	y
48) AIKTSPKA [EX1001]	n
49) ITQLMPFGSLLD [CS1042]	n
50) MPFGSLLDY [CS1013]	y
51) GSLLDYVRE [CS1016]	y
52) TVQLIMQLMPFG [TM1044]	y
53) RAKLLGAE [LR1008]	n
54) MPFGSLLDYV [CS1023]	n
55) QLIMQLMPFGCL [TM1047]	y
56) STVQLIMQLMP [TM1032]	y
57) LTSTVQLIMQL [TM1030]	y
58) KTSPKANK [EX1003, EGFR exon 19 deletion-derived peptide]	n
59) ICLTSTVQLIM [TM1028]	y
60) LITQLMPFGSL [CS1029]	y
61) TSPKANKE [EX1004]	n
62) TQLMPFGSLLDY [CS1043]	n
63) FGSLLDYV [CS1006]	y
